tested on: 855422-203-R-J1-PDC complex spheroid viability; experiment: Anticancer human tumor 855422-203-R-J1-PDC patient-derived bladder carcinoma cell line growth inhibition; conditions: second compound 1 µM; first compound 1 µM; active compounds read low;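 also: drug exposure lasted 7 days starting on day 3 after seeding; luminescence viability as percent of DMSO vehicle wells = 100%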
1 if viability, T/C is below 70%. 0 if not; exact matches included in 0.

Q: Criterion: viability, T/C strictly below 70%. Is it met by CC1COCCN1c1cc(C2(S(C)(=N)=O)CC2)nc(-c2ccnc3[nH]ccc23)n1 (centres undefined) + NC1CC1c1ccc(-c2cccc(O)c2)cc1 ?
Result: 0

Q: Criterion: viability, T/C strictly below 70%. Is it met by O=C(c1cc(Cc2n[nH]c(=O)c3ccccc23)ccc1F)N1CCN(C(=O)C2CC2)CC1 + NC1CCC(NC2CC2c2ccccc2)CC1 ?
Result: 0

Q: Criterion: viability, T/C strictly below 70%. Is it met by O=C(C=Cn1cnc(-c2cc(C(F)(F)F)cc(C(F)(F)F)c2)n1)NNc1cnccn1 + NC1CCC(NC2CC2c2ccccc2)CC1 ?
Result: 1

Q: Criterion: viability, T/C strictly below 70%. Is it met by O=C(C=Cn1cnc(-c2cc(C(F)(F)F)cc(C(F)(F)F)c2)n1)NNc1cnccn1 + NC1CC1c1ccc(-c2cccc(O)c2)cc1 ?
Result: 1

Q: Criterion: viability, T/C strictly below 70%. Is it met by Nc1ncn(C2CC(O)C(CO)O2)c(=O)n1 (centres undefined) + NC1CC1c1ccc(-c2cccc(O)c2)cc1 ?
Result: 0

Q: Criterion: viability, T/C strictly below 70%. Is it met by Nc1ncn(C2CC(O)C(CO)O2)c(=O)n1 (centres undefined) + NC1CCC(NC2CC2c2ccccc2)CC1 ?
Result: 0

Q: Criterion: viability, T/C strictly below 70%. Is it met by COc1ccc([C@@H](O)c2cc(-c3ncnc4cc(N5CCOCC5)ccc34)c(F)cc2Cl)nn1 + NC1CC1c1ccc(-c2cccc(O)c2)cc1 ?
Result: 0

Q: Criterion: viability, T/C strictly below 70%. Is it met by CC(C)c1c(-c2ccccc2)nc2c(C#N)c[nH]n2c1=O + NC1CCC(NC2CC2c2ccccc2)CC1 ?
Result: 0

Q: Criterion: viability, T/C strictly below 70%. Is it met by CC1(C)CCC(CN2CCN(c3ccc(C(=O)NS(=O)(=O)c4ccc(NCC5CCOCC5)c([N+](=O)[O-])c4)c(Oc4cnc5[nH]ccc5c4)c3)CC2)=C(c2ccc(Cl)cc2)C1 + NC1CCC(NC2CC2c2ccccc2)CC1 ?
Result: 0

Q: Criterion: viability, T/C strictly below 70%. Is it met by CC(C)c1c(-c2ccccc2)nc2c(C#N)c[nH]n2c1=O + NC1CC1c1ccc(-c2cccc(O)c2)cc1 ?
Result: 0

Q: Criterion: viability, T/C strictly below 70%. Is it met by CC1COCCN1c1cc(C2(S(C)(=N)=O)CC2)nc(-c2ccnc3[nH]ccc23)n1 (centres undefined) + NC1CCC(NC2CC2c2ccccc2)CC1 ?
Result: 0

Q: Criterion: viability, T/C strictly below 70%. Is it met by COc1cc(Nc2ncc3c(n2)-c2ccc(Cl)cc2C(c2c(F)cccc2OC)=NC3)ccc1C(=O)O + NC1CC1c1ccc(-c2cccc(O)c2)cc1 ?
Result: 1

Q: Criterion: viability, T/C strictly below 70%. Is it met by CC1COCCN1c1cc(-c2ccnn2C)c2ccnc(-c3ccn[nH]3)c2n1 (centres undefined) + NC1CCC(NC2CC2c2ccccc2)CC1 ?
Result: 1
